- procedure text: PZQ-ketoconazole DDI pharmacokinetic study in healthy volunteers
- Assay type: in vivo, human
- condition summary: male, human, plasma, oral, 20 mg/kg, 20 mg/kg PZQ plus 200 mg ketoconazole, n = 9; read-out: AUCt0‐tlast, treatment geo mean
- Method: Plasma samples were obtained from the AiBST biobank. […] Each participant served as their own control. […] The AUC extrapolated to infinite time was calculated as AUC∞ = AUCt + Ct/K el where Ct is the concentration of the last sample taken and K el is the terminal elimination rate constant. The terminal elimination rate constant K el was determined by least squares regression analysis in the terminal phase of the semi log concentration-time curve. […]
Recorded AUC for the following compounds

| structure smiles | AUC (ng·h/mL) |
| --- | --- |
| O=C(C1CCCCC1)N1CC(=O)N2CCc3ccccc3[C@H]2C1 | 4680 |
| O=C(C1CCCCC1)N1CC(=O)N2CCc3ccccc3[C@@H]2C1 | 945 |

Origin of values: paper PMC7376644
